# In vivo Expression (Whole Body) per record follows
- Tested on: BALB/C mice
- assay_explanation: In vivo expression, whole-body luminescence (IVIS)
- experimental_setup: cirRNA (SEQ ID NO: 1) LNPs, BALB/C mice
- Experimental: 6-8 week old, female BALB/C mice were injected with 0.05 mg*kg-1 of RNA-LNPs encoding for firefly-luciferase by intravenous injection. At 6 hours post injection, animals were intraperitoneally injected with 15 mg/ml of Luciferin substrate and whole-body luminescence was determined by a bioluminescent in vivo imaging system (IVIS).

# compound, assayed_system, In vivo Expression (Whole Body)
measured = [
    ("CCCCCCCCC(CCCCCCCC)OC(=O)CCCCCCCN(CCCCCCCCOC(=O)C(CCCCCC)CCCCCCCC)CCCOC(=O)NCCCN(CC)CC (stereo not shown)", "BALB/C mice", "3.59E+06"),
    ("CCCCCCCCCCCOC(=O)CCCCCN(CCCCCC(=O)OCCCCCCCCCCC)CCOC(=O)NCCCN(C)C", "BALB/C mice", "1.02E+05"),
    ("CCCCCCCCCC(=O)OCCCCCCCCN(CCCCCCCCOC(=O)CCCCCCCCC)CCOC(=O)NCCN(C)C", "BALB/C mice", "2.33E+05"),
    ("CCCCC/C=C\\C/C=C\\CCCCCCCCN(CCCCCC(=O)OCC(CCCCCCCC)CCCCCCCCCC)CCOC(=O)NCCN1CCN(C)CC1 (stereo not shown)", "BALB/C mice", "4.92E+05"),
    ("CCCCCCCCCCCOC(=O)CCCCCN(CCCCCCCCOC(=O)C(CCCCCC)CCCCCCCC)CCOC(=O)NCCN1CCN(C)CC1 (stereo not shown)", "BALB/C mice", "1.59E+06"),
    ("CCCCCCCCC(CCCCCCCC)OC(=O)CCCCCCCN(CCCCCCCCOC(=O)C(CCCCCC)CCCCCCCC)CCCOC(=O)NCCN(C)C (stereo not shown)", "BALB/C mice", "7.43E+07"),
    ("CCCCCCCCCC(=O)OCCCCCCCN(CCCCCCCCOC(=O)C(CCCCCC)CCCCCCCC)CCOC(=O)NCCCN1CCCCC1 (stereo not shown)", "BALB/C mice", "2.29E+07"),
]
